- test_system: Estrogen receptor beta (Homo sapiens) (UniProt Q92731)
- Sequence (Q92731 whole entry, looked up): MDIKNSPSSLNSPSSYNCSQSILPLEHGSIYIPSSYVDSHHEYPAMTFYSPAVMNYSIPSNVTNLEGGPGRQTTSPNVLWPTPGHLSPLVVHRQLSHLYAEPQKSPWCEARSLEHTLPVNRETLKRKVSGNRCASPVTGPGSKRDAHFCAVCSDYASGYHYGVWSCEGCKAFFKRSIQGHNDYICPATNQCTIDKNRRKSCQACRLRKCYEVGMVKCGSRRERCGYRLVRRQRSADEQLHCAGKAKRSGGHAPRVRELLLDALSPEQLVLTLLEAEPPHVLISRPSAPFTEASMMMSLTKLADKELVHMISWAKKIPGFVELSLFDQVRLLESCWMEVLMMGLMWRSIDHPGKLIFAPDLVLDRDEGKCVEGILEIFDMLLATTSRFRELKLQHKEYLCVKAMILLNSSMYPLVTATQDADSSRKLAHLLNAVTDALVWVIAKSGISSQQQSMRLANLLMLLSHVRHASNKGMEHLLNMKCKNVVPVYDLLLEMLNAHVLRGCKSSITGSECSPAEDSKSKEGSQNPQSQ
- test_name: OT_ER_ERbERb_0480: Odyssey Thera (OT) 8-hour HEK293T Protein-Complementation Assay for Estrogen Receptor-beta/-beta Homodimer (AID 2283357);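 also: active means signal gain over DMSO baseline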
Inconclusive results are not listed. Active and inactive are the calls of the source. The calls were made as follows: active = hit-call score of the fitted dose curve at least 0.9, where 1 is the maximum; inconclusive = response in the unintended direction; inactive = score below 0.9.
Use one of these outcomes when replying: active, inactive

Past entries and their recorded results:
[
  {
    "molecule": "OCCC(F)(F)C(F)(F)C(F)(F)C(F)(F)C(F)(F)C(F)(F)C(F)(F)C(F)(F)F",
    "cat": "inactive"
  },
  {
    "molecule": "CC[C@H](C)[C@@H](C(=O)O)n1sc2ccccc2c1=O",
    "cat": "inactive"
  },
  {
    "molecule": "Cc1cc(CCN2CCN(c3nsc4ccccc34)CC2)cc2c1NC(=O)CC2(C)C",
    "cat": "inactive"
  },
  {
    "molecule": "CN1CCC[C@H]1c1cccnc1",
    "cat": "inactive"
  },
  {
    "molecule": "CCCCCCCCCCCCN1CCCC1=O",
    "cat": "inactive"
  }
]

Could you kindly confirm the outcome this assay logged for `CCCCCCCC(=O)O` ?
active

// outcome(item) with item = NC(=O)N1C(=O)C(C(=O)c2cc(Cl)cs2)c2cc(F)c(Cl)cc21 (stereo not given)
inactive

Please let me know the test result on file for `ClC1=C(Cl)C(Cl)(Cl)C(Cl)=C1Cl` .
inactive

What did the test return for CCc1ccc(CCOc2ccc(CC3SC(=O)NC3=O)cc2)nc1 (stereo not given) ?
inactive

Assay result, entry `Oc1cccc(O)c1` — outcome?
inactive

The measurements presented in this section are drawn from PubChem BioAssay (EPA / NIEHS).
